Measured EOSINOPHIL by item
# Organism: Rattus norvegicus
# Protocol Summary: DrugMatrix - Regimen: Daily Repeat
# Type: toxicity, organism-based, Sprague-Dawley
# Design: regimen Daily Repeat, gender Male, age 6-8 weeks
# Test Context: in vivo, po, 10 mg/kg, 120 h, tissue Blood, route oral GAVAGE, dose level Low, time 5 day, vehicle .5 % CMC
Hi! Could you send only the number? It should be in %, unit omitted.

// below: answered compounds
{"Compound": "O=C1CN=C(c2ccccc2)c2cc([N+](=O)[O-])ccc2N1", "EOSINOPHIL (%)": 0}
{"Compound": "CC(=O)O[C@]1(C(C)=O)CC[C@H]2[C@@H]3C=C(Cl)C4=CC(=O)CC[C@]4(C)[C@H]3CC[C@@]21C [CHLORMADINONE ACETATE]", "EOSINOPHIL (%)": 0}
{"Compound": "COc1c(C)c2c(c(O)c1C/C=C(\\C)CCC(=O)OCCN1CCOCC1)C(=O)OC2 [MYCOPHENOLATE MOFETIL]", "EOSINOPHIL (%)": 0.67}

Below: the item to evaluate.
Name the recorded EOSINOPHIL of the compound listed here: NS(=O)(=O)c1cc2c(cc1Cl)NCNS2(=O)=O [HYDROCHLOROTHIAZIDE]
0

* * *

# Species on record: Rattus norvegicus
# Protocol Summary: DrugMatrix - Regimen: Daily Repeat
# Type: toxicity, organism-based, Sprague-Dawley
# Set-up: regimen Daily Repeat, gender Male, age 6-8 weeks
# Test Context: in vivo, po, 0 mg/kg, 120 h, tissue Blood, route oral GAVAGE, dose level Control, time 5 day, […]
Measurement Name: ABSOLUTE SEGMENTED NEUTROPHIL

// below: answered compounds
{"Compound": "Cn1cnc([N+](=O)[O-])c1Sc1ncnc2nc[nH]c12", "ABSOLUTE SEGMENTED NEUTROPHIL": "337.67 CELLS/uL"}
{"Compound": "CCCCCCCCCc1ccc(O)cc1", "ABSOLUTE SEGMENTED NEUTROPHIL": "1340.67 CELLS/uL"}
{"Compound": "CN(C)CCCC1(c2ccc(F)cc2)OCc2cc(C#N)ccc21 (centres undefined)", "ABSOLUTE SEGMENTED NEUTROPHIL": "527 CELLS/uL"}
{"Compound": "COCc1c(C(C)C)nc(C(C)C)c(/C=C/[C@@H](O)C[C@@H](O)CC(=O)O)c1-c1ccc(F)cc1", "ABSOLUTE SEGMENTED NEUTROPHIL": "1340.67 CELLS/uL"}
{"Compound": "CC(C)n1c(/C=C/C(O)CC(O)CC(=O)O)c(-c2ccc(F)cc2)c2ccccc21 (centres undefined)", "ABSOLUTE SEGMENTED NEUTROPHIL": "1049.67 CELLS/uL"}

Name the recorded ABSOLUTE SEGMENTED NEUTROPHIL of the compound listed here: CC(=O)[C@H]1CC[C@H]2[C@@H]3CCC4=CC(=O)CC[C@]4(C)[C@H]3CC[C@]12C
527 CELLS/uL

Name the recorded ABSOLUTE SEGMENTED NEUTROPHIL of the compound listed here: CCCC[C@@H](CC)COC(=O)c1ccccc1C(=O)OC[C@@H](CC)CCCC [BIS(2-ETHYLHEXYL)PHTHALATE]
614 CELLS/uL

Name the recorded ABSOLUTE SEGMENTED NEUTROPHIL of the compound listed here: c1ccc2[nH]c(-c3cscn3)nc2c1
614 CELLS/uL

Name the recorded ABSOLUTE SEGMENTED NEUTROPHIL of the compound listed here: CC1=C(/C=C/C(C)=C/C=C/C(C)=C\C(=O)O)C(C)(C)CCC1
554.33 CELLS/uL

* * *

# Species: Rattus norvegicus
# Protocol Summary: DrugMatrix - Regimen: Daily Repeat
# Format: toxicity, organism-based, Sprague-Dawley
# Design: regimen Daily Repeat, gender Male, age 6-8 weeks
# Test Context: in vivo, po, 1500 mg/kg, 120 h, tissue Plasma, route oral GAVAGE, dose level High, time 5 day, vehicle .5 % CMC
Measured CHOLESTEROL by item
Hi! Could you send only the number? It should be in mg/dL, unit omitted.

// below: answered compounds
{"Compound": "COC(=O)c1ccc(O)cc1", "Unit Spec": "mg/dL", "CHOLESTEROL": 76}
{"Compound": "NS(=O)(=O)c1cc2c(cc1Cl)NCNS2(=O)=O [HYDROCHLOROTHIAZIDE]", "Unit Spec": "mg/dL", "CHOLESTEROL": 69}
{"Compound": "CCOC(=O)[C@H](CCc1ccccc1)N[C@@H](C)C(=O)N1[C@H](C(=O)O)C[C@@H]2CCC[C@@H]21", "Unit Spec": "mg/dL", "CHOLESTEROL": 35}

Below: the item to evaluate.
Name the recorded CHOLESTEROL of the compound listed here: O=C1CCc2cc(OCCCCc3nnnn3C3CCCCC3)ccc2N1
66.67

* * *

# Species: Rattus norvegicus
# Protocol Summary: DrugMatrix - Regimen: Daily Repeat
# Type: toxicity, organism-based, Sprague-Dawley
# Design: regimen Daily Repeat, gender Male, age 6-8 weeks
# Test Context: in vivo, po, 0 mg/kg, 72 h, tissue Plasma, route oral GAVAGE, dose level Control, time 3 day, vehicle .5 % CMC
Measurement Name: ALBUMIN (G/DL)
Hi! Could you send only the number? It should be in G/DL, unit omitted.

// below: answered compounds
{"Compound": "C=C1CC[C@H](O)C/C1=C/C=C1\\CCC[C@]2(C)[C@@H]([C@H](C)/C=C/[C@H](C)C(C)C)CC[C@@H]12 [ERGOCALCIFEROL]", "Value": 4.33}
{"Compound": "O=C1CCc2cc(OCCCCc3nnnn3C3CCCCC3)ccc2N1 [CILOSTAZOL]", "Value": 3.8}
{"Compound": "CC(C)[C@H](N)C(=O)OCCOCn1cnc2c(=O)[nH]c(N)nc21 [VALACYCLOVIR]", "Value": 4.15}
{"Compound": "Cc1c(-c2ccccc2)oc2c(C(=O)OCCN3CCCCC3)cccc2c1=O [FLAVOXATE]", "Value": 4.22}
{"Compound": "Brc1ccccc1 [BROMOBENZENE]", "Value": 4.37}
{"Compound": "CCc1cccc2c3c([nH]c12)C(CC)(CC(=O)O)OCC3 (centres undefined) [ETODOLAC]", "Value": 3.77}

Name the recorded ALBUMIN of the compound listed here: CCC[C@@H]1C[C@@H](C(=O)N[C@@H]([C@H]2O[C@H](SC)[C@H](O)[C@@H](O)[C@H]2O)[C@@H](C)O)N(C)C1 [LINCOMYCIN]
4.33

Name the recorded ALBUMIN of the compound listed here: COc1c(C)c2c(c(O)c1C/C=C(\C)CCC(=O)OCCN1CCOCC1)C(=O)OC2 [MYCOPHENOLATE MOFETIL]
4.15

Name the recorded ALBUMIN of the compound listed here: CCc1ccc(C(=O)C(C)CN2CCCCC2)cc1 (centres undefined) [EPERISONE]
4.3

* * *

# Organism: Rattus norvegicus
# Protocol Summary: DrugMatrix - Regimen: Daily Repeat
# Type: toxicity, organism-based, Sprague-Dawley
# Design: regimen Daily Repeat, gender Male, age 6-8 weeks
# Test Context: in vivo, po, 10 mg/kg, 72 h, tissue Plasma, route oral GAVAGE, dose level Low, time 3 day, vehicle .5 % CMC
Measurement Name: ALBUMIN (G/DL)
Hi! Could you send only the number? It should be in G/DL, unit omitted.

{"Compound": "O=C1CN=C(c2ccccc2)c2cc([N+](=O)[O-])ccc2N1", "ALBUMIN (G/DL)": 4.23}

Name the recorded ALBUMIN of the compound listed here: NS(=O)(=O)c1cc2c(cc1Cl)NCNS2(=O)=O [HYDROCHLOROTHIAZIDE]
4.17

Name the recorded ALBUMIN of the compound listed here: COc1c(C)c2c(c(O)c1C/C=C(\C)CCC(=O)OCCN1CCOCC1)C(=O)OC2 [MYCOPHENOLATE MOFETIL]
4.13

Name the recorded ALBUMIN of the compound listed here: CC(=O)O[C@]1(C(C)=O)CC[C@H]2[C@@H]3C=C(Cl)C4=CC(=O)CC[C@]4(C)[C@H]3CC[C@@]21C [CHLORMADINONE ACETATE]
4.5

* * *

# Organism: Rattus norvegicus
# Protocol Summary: DrugMatrix - Regimen: Daily Repeat
# Format: toxicity, organism-based, Sprague-Dawley
# Set-up: regimen Daily Repeat, gender Male, age 6-8 weeks
# Test Context: in vivo, po, 0 mg/kg, 72 h, tissue Plasma, route oral GAVAGE, dose level Control, time 3 day, vehicle 100 % WATER
Label y for high-side LACTATE DEHYDROGENASE (at or above 200 u/L) and n for low-side LACTATE DEHYDROGENASE (below it).

{"Molecule": "CN1CCN(C(=O)OC2c3nccnc3C(=O)N2c2ccc(Cl)cn2)CC1 (stereo not drawn)", "Class": "n"}
{"Molecule": "Clc1ccc(C(c2ccccc2Cl)C(Cl)Cl)cc1 (stereo not drawn)", "Class": "y"}
{"Molecule": "CNCCC=C1c2ccccc2CCc2ccccc21", "Class": "y"}
{"Molecule": "C[C@]12Cc3c[nH]nc3C[C@@H]1CC[C@@H]1[C@@H]2CC[C@@]2(C)[C@H]1CC[C@]2(C)O", "Class": "n"}

In plain terms: is recorded LACTATE DEHYDROGENASE at least 200 u/L for Nc1ccc(S(=O)(=O)Nc2ccnn2-c2ccccc2)cc1 ?
y

In plain terms: is recorded LACTATE DEHYDROGENASE at least 200 u/L for CN1CCC[C@H]1c1cccnc1 ?
y

In plain terms: is recorded LACTATE DEHYDROGENASE at least 200 u/L for CC(C)(S)[C@@H](N)C(=O)O ?
n

In plain terms: is recorded LACTATE DEHYDROGENASE at least 200 u/L for CC1COc2c(N3CCN(C)CC3)c(F)cc3c(=O)c(C(=O)O)cn1c23 (stereo not drawn) ?
y
